# target.under.test: Oligopeptidase B (OPB) (Leishmania major)
# Sequence (Q4QHU7 1-731): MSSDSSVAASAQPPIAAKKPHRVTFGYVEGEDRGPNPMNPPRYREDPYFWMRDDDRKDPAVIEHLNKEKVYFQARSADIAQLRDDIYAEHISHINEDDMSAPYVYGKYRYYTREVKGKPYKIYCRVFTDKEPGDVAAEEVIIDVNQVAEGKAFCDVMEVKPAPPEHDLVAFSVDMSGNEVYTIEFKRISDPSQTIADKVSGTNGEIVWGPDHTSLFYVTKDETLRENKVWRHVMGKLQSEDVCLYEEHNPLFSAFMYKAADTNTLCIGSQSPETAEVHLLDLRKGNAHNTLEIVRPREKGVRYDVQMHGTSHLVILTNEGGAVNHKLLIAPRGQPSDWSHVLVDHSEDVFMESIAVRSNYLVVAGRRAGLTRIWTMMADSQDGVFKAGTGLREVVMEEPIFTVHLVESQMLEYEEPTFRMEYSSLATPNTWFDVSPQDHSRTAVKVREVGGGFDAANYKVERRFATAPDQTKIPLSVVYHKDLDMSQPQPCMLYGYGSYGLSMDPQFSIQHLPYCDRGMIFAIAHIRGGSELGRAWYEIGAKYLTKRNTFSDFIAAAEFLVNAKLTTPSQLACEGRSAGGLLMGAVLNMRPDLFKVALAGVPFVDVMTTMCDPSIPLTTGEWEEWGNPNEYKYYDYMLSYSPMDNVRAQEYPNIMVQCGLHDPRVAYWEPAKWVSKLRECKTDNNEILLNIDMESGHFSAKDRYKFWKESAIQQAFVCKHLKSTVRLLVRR
# experiment: inhibition of Bz-R-AMC cleavage in live promastigotes
property: IC50 (µM)
Note: unit µM is implicit; provide only the numeric part.

Data request: I would be grateful if you could share the reported IC50 for NCCc1ccc(S(=O)(=O)F)cc1 [AEBSF] .
Data returned: 14.4
